- target.of.assay: BACE1 ECD (as used in the enzyme activity assay) (UniProt P56817 22-457, limits assumed)
- Sequence (P56817 22-457 limits assumed): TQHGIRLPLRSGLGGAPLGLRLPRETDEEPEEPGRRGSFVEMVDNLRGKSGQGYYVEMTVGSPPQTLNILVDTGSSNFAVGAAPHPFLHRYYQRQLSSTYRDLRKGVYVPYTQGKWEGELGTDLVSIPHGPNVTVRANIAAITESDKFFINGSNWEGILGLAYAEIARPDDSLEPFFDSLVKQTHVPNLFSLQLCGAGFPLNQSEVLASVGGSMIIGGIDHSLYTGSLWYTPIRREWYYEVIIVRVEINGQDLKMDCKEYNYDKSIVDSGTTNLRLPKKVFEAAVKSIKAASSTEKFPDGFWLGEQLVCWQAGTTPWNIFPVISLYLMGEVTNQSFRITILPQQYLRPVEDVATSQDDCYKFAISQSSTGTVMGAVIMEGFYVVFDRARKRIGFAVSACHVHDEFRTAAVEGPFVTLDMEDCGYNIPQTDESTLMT
- procedure.details: cell-based or functional assay
parameter.measured: EC50, FRET short substrate assay (nM)
Numeric only. Scale: nM

Record 5878 (antibody, V domains shown) VH: EVQLLESGGGLVQPGGSLRLSCAASGFTFSSYAMSWVRQAPGKGLEWVSAISGSGISTPYADSVKGRFTISRDNSKNTLYLQMNSLRAEDTAVYYCAKGAGHGSYVKGWFDPWGQGTLVTVSS VL: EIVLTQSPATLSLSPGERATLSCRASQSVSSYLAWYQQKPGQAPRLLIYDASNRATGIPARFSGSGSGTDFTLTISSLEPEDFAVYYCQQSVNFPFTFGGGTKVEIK , field EC50, FRET short substrate assay: 24.3

Turning now to a further record.
EC50, FRET short substrate assay measured on 5260 (antibody, V domains shown) VH: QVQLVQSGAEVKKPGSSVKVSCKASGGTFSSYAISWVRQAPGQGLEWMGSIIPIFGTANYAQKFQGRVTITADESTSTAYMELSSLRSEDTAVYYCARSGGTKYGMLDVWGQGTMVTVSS VL: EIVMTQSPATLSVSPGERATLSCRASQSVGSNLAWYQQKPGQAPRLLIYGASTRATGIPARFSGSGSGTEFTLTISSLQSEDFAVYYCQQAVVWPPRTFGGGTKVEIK = 36.8
